Where these numbers come from: ChEMBL document CHEMBL1201862

# Test system: KM12
# protocol-text: NCI tumour cell line growth inhibition, 48 h
About 4,000 (6.9%) of roughly 58,000 sequences were called active. The list is a sample of the results. Measured potencies and affinities stand elsewhere.

{"substance": "[Bis(aminomethyl)diethylsilane]tetrachloroplatinum(IV), CHEMBL2146203", "unit-name": "µM", "GI50": 8.85}
{"substance": "[Bis(aminomethyl)pentamethylenesilane]tetrachloropaltinum(IV), CHEMBL2146204", "unit-name": "µM", "GI50": 4.12}
{"substance": "mu-(1,7-nanodiamine-N,N')bis-(cis-aminedichloroplatimum (II)), CHEMBL2146215", "unit-name": "µM", "GI50": 97.1}
{"substance": "[Bis(aminomethyl)ethylmethylsilane]tetrachloroplatinum(IV), CHEMBL2146192", "unit-name": "µM", "GI50": 3.89}

###

# Test system: KM12
# protocol-text: NCI tumour cell line growth inhibition, 48 h
Hit rate of the full screen: of about 58,000 sequences, about 4,000 (6.9%) were called active. A selection follows. Results with a measured potency or affinity are listed apart.

{"substance": "[Bis(aminomethyl)dimethylsilane]tetrachloroplatinum(IV), CHEMBL2146190", "test-target": "KM12", "unit-name": "µM", "GI50": 18.1}
{"substance": "[Bis(aminomethyl)tetramethylenesilane]dichloropaltinum(II), CHEMBL2146205", "test-target": "KM12", "unit-name": "µM", "GI50": 78}
{"substance": "CISPLATIN, CHEMBL11359", "test-target": "KM12", "unit-name": "µM", "GI50": 10}
{"substance": "cis-Bis[[(trimethylsilyl)methyl]amino]tetrachloroplatinum(IV), CHEMBL2146191", "test-target": "KM12", "unit-name": "µM", "GI50": 9.66}
